Test: ADME solubility determination in PBS at pH 2.0 and pH 7.4
Assay type: physicochemical
Conditions: phosphate buffered saline, 25 °C, pH 2, aqueous buffer, thermodynamic from solid, PBS pH 2.0, 25° C., read-out: Solubility at pH 2.0
Assay readout: solubility at 24 h

Give the measured solubility at 24 h of COc1ncnc(C2CC2)c1-c1nc2n(n1)CCC(=O)N2[C@@H](C)c1ccc(-c2nc(C(F)(F)F)c(Br)n2C)cc1 . < 10 µM

Query (molecule): COc1ncnc(C2CC2)c1-c1nc2n(n1)CCC(=O)N2[C@H](C)c1ccc(-c2nc(C(F)(F)F)cn2C(C)C)cc1 ; field requested: solubility at 24 h ≥ 10 µM

# solubility at 24 h lookup, item CC(C)n1cc(C(F)(F)F)nc1-c1ccc(CN2CCCn3nc(-c4c(Cl)cnn4C(C)C)cc32)cc1F < 10 µM

Consider the molecule shown here: Cc1cc(C(F)(F)F)nn1-c1ccc(NC2CCCn3nc(-c4c(Cl)cnn4C(C)C)cc32)cc1 (stereo not shown) What is its recorded solubility at 24 h? < 10 µM

# query: solubility at 24 h of entry Cc1cnn(C(C)C)c1-c1nc2n(n1)CCCN2Cc1ccc(-c2nc(C(F)(F)F)cn2C(C)C)cc1 ≥ 10 µM

I have this molecule here, CCn1cc(C(F)(F)F)nc1-c1ccc(CN2C(=O)CCn3nc(-c4c(Cl)cnn4C(C)COC)cc32)cc1F (stereo not shown) , and I need its recorded solubility at 24 h. < 10 µM

Request the reported solubility at 24 h associated with CCn1cc(C(F)(F)F)nc1-c1ccc([C@H](C)N2C(=O)CCn3nc(-c4c(OC)ncnc4C4CC4)nc32)cc1F ≥ 10 µM

May I ask what solubility at 24 h has been recorded for COc1cc(-c2nc(C(F)(F)F)cn2C(C)C)c(F)cc1CN1C(=O)CCn2nc(-c3c(OC)ncnc3C3CC3)nc21 ? < 10 µM

What value of measured solubility at 24 h is listed for COc1ncnc(C2CC2)c1-c1nc2n(n1)CCC(=O)N2Cc1ccc(-c2nc(C(F)(F)F)cn2C(C)C)c(Cl)c1 ? ≥ 10 µM

What solubility at 24 h value was documented for this molecule, CCn1cc(C(F)(F)F)nc1-c1ccc(NC2c3cc(-c4c(Cl)cnn4C(C)C)nn3CCC2(C)C)cc1 (stereo not shown) ? < 10 µM

Item under review: CC(C)n1ncc(Cl)c1-c1cc2n(n1)CCC(=O)N2Cc1ccc(-c2cn(C)c(C(F)(F)F)n2)cc1 . Reported solubility at 24 h? < 10 µM

Quick one: solubility at 24 h of CCn1cc(C(F)(F)F)nc1-c1ccc(CN2C(=O)CCn3nc(-c4c(Cl)cnn4C(C)C)cc32)cn1 ? < 10 µM

// solubility at 24 h lookup, key: COc1ncnc(C2CC2)c1-c1nc2n(n1)CCC(=O)N2Cc1ccc(-c2nc(C(F)(F)F)cn2C(C)C)cc1 < 10 µM

Could you share which solubility at 24 h value was measured for Cc1cn(C)nc1-c1ccc(CN2C(=O)CCn3nc(-c4c(Cl)cnn4C(C)C)cc32)cc1 ? < 10 µM

Consider the molecule Cc1cnn(C(C)C)c1-c1cc2n(n1)CCCN2Cc1ccc(-n2nc(C(F)(F)F)cc2C)cc1 and give its measured solubility at 24 h. < 10 µM

Would you mind telling me what solubility at 24 h value was observed for CCn1cc(C(F)(F)F)nc1-c1ccc([C@H](C)N2C(=O)CCn3nc(-c4c(C#N)cnn4C(C)C)cc32)cc1F (single isomer, unassigned) ? < 10 µM

I am curious: what solubility at 24 h value has been reported for COc1cc(C(F)(F)F)nn1-c1ccc(CN2C(=O)CCn3nc(-c4c(Cl)cnn4C(C)C)cc32)cc1 ? < 10 µM

Param item = CCn1cc(C(F)(F)F)nc1-c1ccc(Cn2c(=O)ccn3nc(-c4c(OC)ncnc4C4CC4)nc23)cc1 ; retrieve measured solubility at 24 h. ≥ 10 µM

Suppose we examine the molecule CCn1cc(C(F)(F)F)nc1-c1ccc([C@H](C)N2C(=O)CCn3nc(-c4c(OC)ncnc4C4CC4)cc32)cc1 ; what solubility at 24 h value has been reported? ≥ 10 µM

Look up solubility at 24 h for this molecule: CCn1cc(C(F)(F)F)nc1-c1ccc(CN2C(=O)C(C)Cn3nc(-c4c(OC(F)F)ncnc4C4CC4)nc32)cc1F (stereo not shown) < 10 µM

Suppose we examine the molecule COc1ncnc(C2CC2)c1-c1cc2n(n1)CCC(=O)N2Cc1ccc(-c2nc(C(F)(F)F)cn2C)c(F)c1 ; what solubility at 24 h value has been reported? < 10 µM

Recorded solubility at 24 h for CCOc1cccnc1-c1ccc(CN2C(=O)CCn3nc(-c4c(Cl)cnn4C(C)C)cc32)cc1Cl , please? < 10 µM

Could you tell me which solubility at 24 h is on file for CCn1cc(C(F)(F)F)nc1-c1ccc(OC2CCCCn3nc(-c4c(Cl)cnn4C(C)C)cc32)cc1 (stereo not shown) ? < 10 µM

Using the record for COc1ncnc(C2CC2)c1-c1nc2n(n1)CCC(=O)N2Cc1ccc(-c2nc(C(F)(F)F)cn2C)c(F)c1 , report its solubility at 24 h. ≥ 10 µM

Need solubility at 24 h of Cc1cnn(C(C)C)c1-c1nn2c(c1Cl)N(Cc1ccc(-c3nc(C(F)(F)F)cn3C(C)C)c(F)c1)CCC2 , thanks. < 10 µM

Which solubility at 24 h value is on record for CCn1cc(C(F)(F)F)nc1-c1ccc(NC2CCCc3nn(-c4ccccc4C(C)C)cc32)cc1F (stereo not shown) ? < 10 µM

# input molecule: COc1cc(C(F)(F)F)nn1-c1ccc(CN2C(=O)CCn3nc(-c4c(Cl)cnn4C(C)C)cc32)cc1F ; wanted: its solubility at 24 h < 10 µM

Fill in the blank: the reported solubility at 24 h of CCn1cc(C(F)(F)F)nc1-c1ccc(NC2CCCn3nc(-c4c(C#N)cnn4C(C)C)cc32)cc1F (stereo not shown) is ____. < 10 µM

----------
Biological target: USP1/UAF1 enzyme (Homo sapiens)
Sequence (O94782 whole entry): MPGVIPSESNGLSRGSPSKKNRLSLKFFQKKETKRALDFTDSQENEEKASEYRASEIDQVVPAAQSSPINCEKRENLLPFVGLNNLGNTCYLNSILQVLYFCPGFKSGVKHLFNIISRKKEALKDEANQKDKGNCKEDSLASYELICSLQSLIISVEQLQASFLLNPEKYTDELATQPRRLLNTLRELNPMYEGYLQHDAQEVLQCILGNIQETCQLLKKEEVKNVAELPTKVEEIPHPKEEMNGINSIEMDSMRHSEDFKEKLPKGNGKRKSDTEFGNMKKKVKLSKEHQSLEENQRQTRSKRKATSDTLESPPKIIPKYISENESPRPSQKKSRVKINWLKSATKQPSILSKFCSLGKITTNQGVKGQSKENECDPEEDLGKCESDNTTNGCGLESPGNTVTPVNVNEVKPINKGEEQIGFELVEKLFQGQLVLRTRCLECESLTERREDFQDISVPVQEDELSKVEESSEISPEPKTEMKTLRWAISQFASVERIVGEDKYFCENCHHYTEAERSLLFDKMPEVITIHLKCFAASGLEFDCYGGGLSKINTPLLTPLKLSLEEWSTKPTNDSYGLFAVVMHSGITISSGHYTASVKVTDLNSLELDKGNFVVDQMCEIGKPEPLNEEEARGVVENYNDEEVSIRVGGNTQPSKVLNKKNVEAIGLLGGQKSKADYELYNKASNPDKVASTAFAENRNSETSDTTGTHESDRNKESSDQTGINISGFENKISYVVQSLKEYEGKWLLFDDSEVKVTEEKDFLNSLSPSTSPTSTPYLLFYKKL
Sequence (Q8TAF3 whole entry partner): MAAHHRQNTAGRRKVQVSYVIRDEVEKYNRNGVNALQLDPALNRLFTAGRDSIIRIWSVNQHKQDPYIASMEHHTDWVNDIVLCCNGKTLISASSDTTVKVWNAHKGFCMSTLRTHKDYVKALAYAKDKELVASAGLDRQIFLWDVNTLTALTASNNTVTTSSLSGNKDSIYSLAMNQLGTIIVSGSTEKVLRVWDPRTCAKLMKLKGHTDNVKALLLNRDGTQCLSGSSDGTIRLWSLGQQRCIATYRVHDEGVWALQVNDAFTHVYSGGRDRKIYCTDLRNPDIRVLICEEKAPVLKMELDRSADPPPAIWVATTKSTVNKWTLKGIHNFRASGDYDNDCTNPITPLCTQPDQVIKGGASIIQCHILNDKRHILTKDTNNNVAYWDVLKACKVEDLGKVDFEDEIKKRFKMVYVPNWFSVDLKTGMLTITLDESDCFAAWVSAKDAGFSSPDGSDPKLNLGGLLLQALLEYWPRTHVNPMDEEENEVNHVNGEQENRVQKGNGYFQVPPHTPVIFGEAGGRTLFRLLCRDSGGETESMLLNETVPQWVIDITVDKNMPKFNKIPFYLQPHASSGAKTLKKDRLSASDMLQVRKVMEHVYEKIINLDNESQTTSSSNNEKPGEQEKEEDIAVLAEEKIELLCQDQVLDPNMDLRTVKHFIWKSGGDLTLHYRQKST
Test: USP1/UAF1 deubiquitination assay (ubiquitin-rhodamine 110 substrate)
Conditions: read-out: USP1 IC50 (Ub-Rho)
Could you please report measured IC50 for the items listed next?

Could you tell me which IC50 is on file for CC(C)n1cc(C(F)(F)F)nc1-c1ccc(CN2C(=O)CCn3nc(-c4c(Cl)cnn4C(C)C)nc32)cc1 [Example 41] ? < 100 nM

Quick one: IC50 of COc1cc(CN2C(=O)CCn3nc(-c4c(OC)ncnc4C4CC4)nc32)ccc1-c1nc(C(F)(F)F)cn1C(C)C [Example 166] ? 100 to 500 nM

Please look up its IC50: CCn1cc(C(F)(F)F)nc1-c1ccc(C(C)N2C(=O)CCn3nc(-c4c(Cl)cnn4C(C)C)cc32)cc1F (stereo not drawn) [Example 119] < 100 nM

Reported IC50, compound CC(c1ccc(F)cc1)N1C(=O)CCn2nc(-c3c(Cl)cnn3C(C)C)cc21 (stereo not drawn) [Example 110] : ____ 100 to 500 nM

GET /values?readout=IC50&item= CC(C)n1cc([N+](=O)[O-])nc1-c1ccc(CN2C(=O)CCn3nc(-c4c(Cl)cnn4C(C)C)cc32)cc1 [Example 112] < 100 nM

Recorded IC50 for CCn1cc(C(F)(F)F)nc1-c1ccc(CN2C(=O)CCn3nc(-c4c(OC)ncnc4C4CC4)nc32)cc1F [Example 44] , please? < 100 nM

----------
Molecular target: USP1/UAF1 enzyme (Homo sapiens)
Assay: USP1/UAF1 deubiquitination assay (ubiquitin-rhodamine 110 substrate)
Settings: read-out: USP1 IC50 (Ub-Rho)
Assay readout: IC50

Tell me the measured IC50 of CCn1cc(C(F)(F)F)nc1-c1ccc(O[C@H]2CCCn3nc(-c4c(OC)ncnc4C4CC4)cc32)cc1F (single isomer, unassigned) , please. < 0.1 µM

Recorded IC50 for CCn1cc(C(F)(F)F)nc1-c1ccc([C@@H](C)N2C(=O)CCn3nc(-c4c(OC)ncnc4C4CC4)nc32)cc1F , please? < 0.1 µM

// returns reported IC50 for input CCn1cc(C(F)(F)F)nc1-c1cnc(CN2C(=O)CCn3nc(-c4c(Cl)cnn4C(C)C)cc32)nc1 > 0.5 µM

Which IC50 is reported for this compound? CCn1cc(Cl)nc1-c1ccc(CN2C(=O)CCn3nc(-c4c(Cl)cnn4C(C)C)cc32)cc1 < 0.1 µM

Need IC50, item Cc1cc(C(F)(F)F)nn1-c1ccc(CN2C(=O)CCn3nc(-c4c(Cl)cnn4C(C)C)cc32)cc1F < 0.1 µM

What value of measured IC50 is listed for CCn1cc(C(F)(F)F)nc1-c1ccc(CN2C(=O)C(N(C)C)Cn3nc(-c4c(Cl)cnn4C(C)C)cc32)cc1 (stereo not shown) ? < 0.1 µM

I am curious: what IC50 value has been reported for Cc1cnn(C(C)C)c1-c1nn2c(c1Cl)N(Cc1ccc(-c3nc(C(F)(F)F)cn3C(C)C)c(F)c1)CCC2 ? < 0.1 µM

Item CC(C)n1ncc(Cl)c1-c1cc2n(n1)CCC(=O)N2Cc1ccc(-c2ncccc2C(F)(F)F)c(Cl)c1 has what recorded IC50? > 0.5 µM

Request the reported IC50 associated with COc1ncnc(C2CC2)c1-c1cc2n(n1)CC(C)C(=O)N2Cc1ccc(-c2nc(C(F)(F)F)cn2C)cc1 (stereo not shown) < 0.1 µM

Endpoint output: IC50 of COc1cc(-c2nc(C(F)(F)F)cn2C(C)C)c(F)cc1CN1C(=O)CCn2nc(-c3c(OC)ncnc3C3CC3)nc21 . Value? < 0.1 µM

Need IC50, item CC(C)n1ncc(Cl)c1-c1nc2n(n1)CCC(=O)N2Cc1ccc(-c2ncccc2OCC(F)F)cc1 0.1 to 0.5 µM

What value of IC50 has been reported for the following compound? COc1cnn(C(C)C)c1-c1cc2n(n1)CCC(=O)N2Cc1ccc(-c2nc(C(F)(F)F)cn2C(C)C)cc1 0.1 to 0.5 µM

Consider the compound COc1ncnc(C2CC2)c1-c1nc2n(n1)CCC(=O)N2C(C)c1ccc(-c2nc(C(F)(F)F)cn2C(C)C)cc1 (stereo not shown) and give its measured IC50. < 0.1 µM

So what does the record say about IC50 for CC(C)n1ncc(Cl)c1-c1cc2n(n1)CCC(=O)N2Cc1ccc(-c2ncccc2N2CCOCC2)c(Cl)c1 ? < 0.1 µM

Would you mind telling me what IC50 value was observed for COc1cc(C(F)(F)F)nn1-c1ccc(CN2C(=O)CCn3nc(-c4c(Cl)cnn4C(C)C)cc32)cc1 ? < 0.1 µM

Given CCn1cc(C(F)(F)F)nc1-c1ccc(CN2C(=O)CCn3nc(-c4c(OC)ncnc4C4CC4)cc32)nc1 , state its recorded IC50. 0.1 to 0.5 µM

Look up IC50: CCn1cc(C(F)(F)F)nc1-c1ccc([C@H](C)n2c(=O)ccn3nc(-c4c(OC)ncnc4C4CC4)nc23)cc1F < 0.1 µM

May I ask what IC50 has been recorded for Cn1cc(C(F)(F)F)nc1-c1ccc(CN2C(=O)CCn3nc(-c4c(Cl)cnn4C4CCC4)cc32)cc1F ? < 0.1 µM

What value of IC50 has been recorded for this entry: COc1c(CN2C(=O)CCn3nc(-c4c(Cl)cnn4C(C)C)nc32)ccc(-c2nc(C(F)(F)F)cn2C(C)C)c1F < 0.1 µM

May I ask what IC50 has been recorded for CC(C)Oc1cccnc1-c1ccc(CN2C(=O)CCn3nc(-c4c(Cl)cnn4C(C)C)nc32)cc1Cl ? 0.1 to 0.5 µM

Reported IC50, compound COc1cccnc1-c1ccc(CN2C(=O)CCn3nc(-c4c(Cl)cnn4C(C)C)cc32)cc1 : ____ < 0.1 µM

# input compound: COc1ncnc(C2CC2)c1-c1cc2n(n1)CCC(=O)N2C(C)c1ccc(-c2nc(C(F)(F)F)cn2C)cc1 (stereo not shown) ; wanted: its IC50 0.1 to 0.5 µM

Look up IC50 for this compound: CCn1nc(C(F)(F)F)nc1-c1ccc(CN2C(=O)CCn3nc(-c4c(Cl)cnn4C(C)C)cc32)cc1 0.1 to 0.5 µM

Fill in the blank: the reported IC50 of CCn1cc(C(F)(F)F)nc1-c1ccc(CN2C(=O)CCn3nc(-c4c(Cl)cnn4C(C)(C)COC)cc32)cc1F is ____. < 0.1 µM

Given COc1ncnc(C2CC2)c1-c1cc2n(n1)CCC(=O)N2Cc1ccc(-c2nc(C(F)(F)F)cn2C)cc1 , state its recorded IC50. < 0.1 µM

# IC50 lookup, item Cc1ncc(-c2ccc(CN3C(=O)CCn4nc(-c5c(Cl)cnn5C(C)C)cc43)cc2Cl)n1C > 0.5 µM

For COc1ncnc(C)c1-c1cc2n(n1)CCCN2Cc1ccc(-n2nc(C(F)(F)F)cc2C)cc1 , what is its reported IC50? 0.1 to 0.5 µM

Name the recorded IC50 for COc1ncnc(C2CC2)c1-c1nn2c(c1Cl)N(Cc1ccc(-c3nc(C(F)(F)F)cn3C)cc1)C(=O)CC2 . < 0.1 µM
